src = patent US20080267942A1

System Name: porcine beta-2 adrenoceptor (Sus scrofa)
Sequence (Q28997 whole entry): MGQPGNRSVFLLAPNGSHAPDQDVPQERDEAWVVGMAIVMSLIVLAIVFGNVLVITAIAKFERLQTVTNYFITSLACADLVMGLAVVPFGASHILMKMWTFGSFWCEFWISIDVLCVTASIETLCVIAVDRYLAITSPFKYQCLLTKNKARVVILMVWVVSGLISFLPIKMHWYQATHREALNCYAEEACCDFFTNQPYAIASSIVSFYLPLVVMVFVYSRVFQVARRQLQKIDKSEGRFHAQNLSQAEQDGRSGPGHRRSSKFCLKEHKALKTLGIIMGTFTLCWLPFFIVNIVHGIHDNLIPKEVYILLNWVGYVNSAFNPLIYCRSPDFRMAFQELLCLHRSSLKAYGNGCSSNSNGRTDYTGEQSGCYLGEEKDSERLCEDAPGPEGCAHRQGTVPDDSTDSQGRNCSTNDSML
Method Summary: cAMP assay in CHO cells transfected with the porcine beta-2 adrenoceptor (DiscoveRx Hit Hunter cAMP II)
Experimental Setup: CHO cells transfected with porcine beta-2 adrenoceptor, 30 minutes incubation with compound
Catalogue of compounds with associated EC50
Give your result in nM as a bare value.

The following compounds have reported results that may help.
INSERT INTO results (compound, system_name, reading_unit, number) VALUES
  ('Cc1ncsc1CCC(C)N[C@@H]1CCn2c(=O)[nH]c3cccc(c32)[C@H]1O (single isomer, unassigned) [Example 34b]', 'porcine beta-2 adrenoceptor (Sus scrofa)', 'nM', 2.1),
  ('CC(CCc1cccnc1N)N[C@@H]1CCn2c(=O)[nH]c3cccc(c32)[C@H]1O (single isomer, unassigned)', 'porcine beta-2 adrenoceptor (Sus scrofa)', 'nM', 1.8);

[ask] I'd like to know its EC50. The compound in question is C[C@H](CCc1c[nH]c2ccccc12)N[C@@H]1CCn2c(=O)[nH]c3cccc(c32)[C@H]1O [Example 4e]
[reply] 3.7

[ask] I'd like to know its EC50. The compound in question is Cc1[nH]c2ccccc2c1CCC(C)N[C@@H]1CCn2c(=O)[nH]c3cccc(c32)[C@H]1O (mixture of isomers)
[reply] 3

[ask] I'd like to know its EC50. The compound in question is Cc1nn(C)c(C)c1CCC(C)N[C@@H]1CCn2c(=O)[nH]c3cccc(c32)[C@H]1O (single isomer, unassigned) [Example 48]
[reply] 3.1

[ask] I'd like to know its EC50. The compound in question is Cc1nc2ccccc2n1CCC(C)N[C@@H]1CCn2c(=O)[nH]c3cccc(c32)[C@H]1O (single isomer, unassigned)
[reply] 1.2
